// k obs lookup, one value per entry
- assay-info: The compound was tested for hydrolysis rate at pH 7
- Type: ADME
- experimental-setup: buffer
A number alone suffices; assume min⁻¹.

Reference set (3 entries):
- smiles-representation: "CCc1cc(NCN2C(=O)c3ccccc3C2=O)c(O)nc1C"
  k obs (min⁻¹): 0.00624
- smiles-representation: "Cc1ccc(NCN2C(=O)c3ccccc3C2=O)c(=O)[nH]1"
  k obs (min⁻¹): 0.00424
- smiles-representation: "O=C1c2ccccc2C(=O)N1CNc1cccnc1O"
  k obs (min⁻¹): 0.00085

Determine its reported k obs: "O=C1c2ccccc2C(=O)N1CNc1cc2c(nc1O)CCCC2"
0.00777

Determine its reported k obs: "CCc1nc(O)c(NCN2C(=O)c3ccccc3C2=O)cc1C"
0.00722
